Entries and their melting point

Example cases with answers are listed next.
Tell me the measured melting point of COc1ccc(S(=O)(=O)C(C)(Cc2ccccc2Br)C(=O)O)cc1 (stereo not drawn) , please.
93 to 96 °C

// returns reported melting point for input `O=C1NC(=S)NC(=O)C1=Cc1cc(Br)cs1`
230 °C

Further cases:
Any idea what its melting point is? The molecule is CCC1(CO)CCCN2CCc3c([nH]c4ccccc34)C21 (stereo not drawn)
230 to 233 °C

====

The following molecules are shown together with reported melting point values.

Fill blank: measured melting point of the molecule `CCCCCCCCCCCCOCCCNC(=O)c1cc(OCC(=O)O)c2ccccc2c1O` is ____.
150 °C

Returns the measured melting point for the input molecule. Input: `O=C1c2ccccc2C(=O)c2cc(Br)c(Br)cc21`
> 300 °C

Return reported melting point; argument: Cc1ccc(N2C(=O)C(O)=C(C(=O)c3ccc(C(C)(C)C)cc3)C2c2ccc(OC(F)(F)F)cc2)nn1 (stereo not given)
262 to 265 °C

Further cases:
Reported melting point for CN1CCOc2cc3c(cc21)OCC31C(=O)N(CC2CCCO2)c2ccccc21 (stereo not given) : what is it?
138 to 140 °C

What does the data say about its melting point? Entry: `COc1cc(OC)nc(Sc2ncccc2C(=O)O)n1`
165 to 168 °C

Entry `CCOC(=O)CCNC(=O)N(CCCO)c1ccc(-c2ccc(C#N)cc2)cc1` has what melting point?
102 to 104 °C

====

readout-label: melting point

Answered cases to consult:
State the recorded melting point for this entry: `CCn1c(=O)c2cnc(N)nc2n(CC)c1=O`
230 to 232 °C

For `CCCCc1nc2c(c(C)c(C)n3nnnc23)n1CC(C)(C)NC(=O)c1ccccc1` , what is its reported melting point?
201 to 204 °C

If you can, please state the reported melting point value of `ClCc1ccccc1COc1ccc(C=Cc2ccc3ccccc3n2)cc1` .
127 to 128 °C

Further cases:
Given the compound `COc1ccc2ccc(NC(=O)c3c[nH]c4c3C(=O)CCC4)nc2n1` , what is its reported melting point?
173 to 181 °C

May I ask what melting point has been recorded for `CCc1nnc2c(OC)nc3cc(OC)ccc3n12` ?
184 to 188 °C

Given `C[C@H](NC(=O)C(SC(=O)c1ccccc1)SC(=O)c1ccccc1)C(=O)O` , state its recorded melting point.
161 to 162 °C

====

// reported melting point per item

What value of measured melting point is listed for CCc1nc(C)c(C(=O)OC(C)OC(=O)C(C)(C)OC)n1Cc1ccc2oc(-c3ccccc3-c3nnn[nH]3)c(Br)c2c1 (stereo not given) ?
135 to 140 °C

Item under review: COc1cc(CC(C#N)C(OC)OC)cc(OC)c1Cl (stereo not given) . Reported melting point?
84 °C

# get_value(readout='melting point', item= `CC(C)(C)CC(C)(C)c1cc(-n2nc3ccc(-c4cccnc4)cc3n2)c(O)c(C(C)(C)c2ccccc2)c1` )
126 to 128 °C

Name the reported melting point value associated with the compound `N#CCc1cccc2c1CCN=C2c1ccc([N+](=O)[O-])cc1`
138 to 139 °C

Next:
What value of measured melting point is listed for O=C1CCN(C(=O)c2cc(C(F)(F)F)cc(C(F)(F)F)c2)C(Cc2ccccc2)C1 (stereo not given) ?
102 °C

====

readout-label: melting point

Solved entries:
Need melting point, item `CCCC(=O)c1c(C(C)(C)C)cc(C=[N+]([O-])C(C)(C)C)cc1C(C)(C)C`
217 to 236 °C

I'd like to know its melting point. The compound in question is `N#Cc1ccc2[nH]c(-c3ccc(Cl)c(Cl)c3)c(CCCC(=O)O)c2c1`
190 to 195 °C

Would you kindly share the measured melting point for `Nc1cccnc1-c1ccccc1` ?
59 to 62 °C

Next:
Entry `COc1ccccc1N(CC1OCCO1)C(=O)c1ccc(CCl)cc1` has what melting point?
126 to 129 °C

Looking for the measured melting point of COc1ccc(CN2C(=O)C(C)(c3ccccc3Cl)c3cc(OC)ccc32)c(OC)c1 (centres undefined) , can you help?
133 °C

Returns the measured melting point for the input compound. Input: `CCOCc1nnc2n1-c1ccc(Cl)cc1C(c1ccccc1)=NC2`
168 to 170 °C

Dear colleague, I am looking for the recorded melting point of the following compound: `COc1nc(-c2c(F)cccc2F)nn1-c1ccccc1C(F)(F)F`
118 to 119 °C

Entry `CC1(C)C=C(c2ccccn2)c2cc(Cl)ccc2OC1` : reported melting point = ?
100 °C

Which melting point is reported for this compound? `COC(=O)c1ccc(Cc2cc3cc(C(F)(F)F)ccc3n2S(=O)(=O)c2ccc3c(c2)N(C)CCO3)cc1`
63 °C

====

Below is a list of entries, each paired with its recorded melting point value.

Fill in the blank: the reported melting point of `CCCNC(=S)NCCCCn1c(-c2ccccc2)nc2c(N)nc3ccccc3c21` is ____.
113 to 116 °C

Requested field: melting point. Item: `CN1CCC(c2c[nH]c3ccc(NC(=O)c4ccc(C#N)cc4)nc23)CC1`
129 to 134 °C

Would you mind telling me what melting point value was observed for Cc1ccc(C(=O)Nc2cn(C3CCCCO3)nc2C(=O)NCCO)cn1 (centres undefined) ?
140 °C

Tell me the measured melting point of `C#CCN1Cc2cccnc2N(c2cccc(Br)c2)C1=O` , please.
118 to 119 °C

Lab note: next compound to report on.
Could you tell me which melting point is on file for COc1cc(Cc2cnc(N)nc2N)c2c(c1OC)OC(C)CC2=O (centres undefined) ?
128 to 132 °C

====

readout-label: melting point

Name the recorded melting point for `BrCCC1(c2ccccc2)OCCO1` .
57 to 58 °C

Please look up its melting point: `CCC(=C(c1ccccc1)c1ccc(C=CC(=O)O)cc1)c1ccccc1`
148 to 150 °C

Using the record for `Cc1ccccc1-c1coc2cc(OCC(=O)O)cc(Cl)c2c1=O` , report its melting point.
191 to 192 °C

New cases:
Give the measured melting point of `Nc1ccc(SCC2CC2)cc1[N+](=O)[O-]` .
45 to 47 °C

GET /values?readout=melting point&item= `Cc1cc(F)ccc1NC(=O)c1cc([N+](=O)[O-])ccc1NC(=O)CF`
237 to 239 °C

====

# reported melting point; entries follow

Bench note: what melting point did `CCCc1c(OCCCCCc2c(Cl)c(Cl)cc(OC)c2OC)ccc(C(=O)OC)c1O` show?
113 to 115 °C

Give its melting point value. Item: `COC(=O)CCC(=O)NS(=O)(=O)c1ccc([N+](=O)[O-])cc1`
156 °C

Which melting point value belongs to `CCOC(=O)c1cnc2c3cc(NC(=O)C(CC)CC)ccc3ncn2c1=O` ?
220 to 222 °C

Sample `CNC(=O)c1ccc(-c2coc3ccc(-c4nnc(C)o4)cc23)cc1F` — what was its melting point?
183 to 184 °C

Looking for the measured melting point of `CCn1c(=O)c(-c2c(Cl)cccc2Cl)cc2cnc(Nc3cc(OC)c(OC)c(OC)c3)nc21` , can you help?
275 to 278 °C

// returns reported melting point for input `Cc1nc2ccccc2n1CCOCCCl`
96 to 98 °C

Please report the recorded melting point for COc1cc(N)c(C(N)=O)cc1C(=O)N[C@H]1CCN(Cc2ccc(F)cc2)C[C@H]1OC (relative stereo) .
244 °C

Consider the compound shown here: `CCCCCC1=C(c2ccc(F)cc2)C(=NO)CC1` What is its recorded melting point?
101 to 102 °C

Further cases:
Endpoint output: melting point of `FC(F)(F)c1ccc(-c2cc3ncnc(Nc4ccc5[nH]ccc5c4)c3s2)cc1` . Value?
181 to 194 °C

// lookup melting point for `Brc1ccc(CN2CCN(c3ccncc3)CC2)cc1`
140 to 141 °C

If you can, please state the reported melting point value of `CCC(=O)N(C)c1cccc(-c2ccnc3c(C(=O)c4ccccc4)cnn23)c1` .
154 to 156 °C

Need melting point of CN(C)C(=O)CC1(C)OCCC2=C1c1ccccc1C2 (configuration not stated) , thanks.
112 to 114 °C

====

The following compounds are listed with their measured melting point values.

Entry O=S(CCCCCOc1ccc(C2=C(c3ccccc3)CCCc3cc(O)ccc32)cc1)CCCC(F)(F)C(F)(F)F (stereo not drawn) has what melting point?
138 to 140 °C

Further cases:
Using the record for `O=C(CCCCCNC(=O)CCCc1ccccc1)NO` , report its melting point.
92 to 93 °C

Entry `CC(C)(C)c1cc(OCc2cccc(-c3nnn[nH]3)c2)cc(C(C)(C)C)c1O` has what melting point?
163 to 164 °C

====

readout-label: melting point

Given the entry CONC(=O)NC1CCC(=O)c2ccccc21 (configuration not stated) , report its measured melting point.
148 to 151 °C

New cases:
Please look up its melting point: CCN(CC)c1ccc(C2(c3ccc(N(CC)CC)cc3N(CC)CC)OC(=O)c3c(Cl)c(Cl)c(Cl)c(Cl)c32)c(C)c1 (configuration not stated)
162 to 164 °C

Suppose we examine the compound `CC(C)(O)CC(=O)N[C@H]1CC[C@H](CCN2CCN(c3nccc4c3CCO4)CC2)CC1` ; what melting point value has been reported?
208 °C

Quick one: melting point of COC(=O)C1=C(C)Nc2nc(N3CCOCC3)nc(N3CCOCC3)c2C1c1cccc(Cl)c1Cl (configuration not stated) ?
188 °C

Any idea what melting point was measured for `N#Cc1ccc(C=NO)cc1` ?
174 to 176 °C

Would you mind telling me what melting point value was observed for `NC(=O)C12CCCN(CCC1)C2` ?
172 to 175 °C

Value lookup for melting point; key = `COc1c(C=NO)c(=O)n(C)c(=O)n1C`
127 to 128 °C

I would be grateful if you could share the reported melting point for CC12C=CC(=O)NC1CCc1cc(Cl)ccc12 (configuration not stated) .
151 to 154 °C

Query: melting point; subject: CCCCC(CC)CN1C(=O)C(=Cc2cc3sc(-c4ccc(N(c5ccccc5)c5ccccc5)cc4)cc3s2)C(C)=C(C#N)C1=O (configuration not stated)
208 to 213 °C

Which measured melting point value corresponds to `O=C1Cc2c(Oc3ccccc3)ccc(Cl)c2N1` ?
200 to 202 °C

What value of measured melting point is listed for `O=C(O)c1cccc2[nH]nnc12` ?
250 to 252 °C

Can you share its melting point? I mean this compound: `O=C1C(=O)c2ccccc2C2=C1SCC1(CCN(C3CCCCC3)CC1)O2`
195 to 196 °C
